Biological target: IGFR kinase (Homo sapiens)
Construct: purchased Millipore
Experiment: Enzyme assay (c), IGFR kinase, Caliper LabChip
Assay type: biochemical
Conditions: 30 nM IGFR kinase, 6 uM ATP, 3 uM peptide mix; read-out: IGFR IC50
Description: For Echo dosing the solvent was 100% DMSO. A master plate was prepared with 40 ul of 10 mM stock solution of the test compound in DMSO in quadrant 1 of a Labcyte 384 well plate. A 1 in 100 dilution was made from quadrant 1 into quadrant 2 by removing 0.4 ul and adding it to 39.6 ul of DMSO. […] Integration of the substrate and product peaks was carried out using Caliper LabChip software and IC50 curves were calculated using Origin™ software.
pIC50: −log10 of the molar value.
quantity: pIC50

Use these answered entries as a reference point.
| compound | value |
| --- | --- |
| CNCc1ccn2c(-c3nc(Nc4ccc(N5CCN(C(C)=O)CC5)cc4OC)ncc3Cl)cnc2c1 | 7.44 |
| CNCC(=O)N1CCc2cc(OC)c(Nc3ncc(Cl)c(-c4cnn5ccccc45)n3)cc21 | 8.40 |
| COc1cc(N2CCN(C(C)=O)CC2)ccc1Nc1ncc(C)c(-c2cnn3ccccc23)n1 | 7.82 |
| COc1cc(N2CCN(C(=O)CO)CC2)ccc1Nc1ncc(Cl)c(-c2cnn3ccccc23)n1 | 8.52 |
| COc1cc(OC[C@H]2CCCN2)ccc1Nc1ncc(F)c(-c2cnc3ccccn23)n1 | 7.19 |

I = COc1cc(N2CCN(CCC#N)CC2)ccc1Nc1ncc(Cl)c(-c2cnc3ccccn23)n1
II = COc1cc(C2CCNC(C)C2)ccc1Nc1ncc(Cl)c(-c2cnc3ccccn23)n1 (stereo not shown)
Select the item with the higher value of pIC50 from the options I and II listed. Provide the label of your selected option as the answer. II

a = COc1cc(O[C@@H]2CCN(C(=O)[C@H](C)O)C2)ccc1Nc1ncc(Cl)c(-c2cnc3ccccn23)n1 [Example 12A]
b = COc1cc(N2CCN(C(=O)[C@@H](N)CC(N)=O)CC2)ccc1Nc1ncc(Cl)c(-c2cnc3ccccn23)n1
Of a and b , which shows the smaller pIC50 value? Provide the label of your selected option as the answer. a
(a: 7.89, b: 8.15)

###

molecular target: IGFR kinase (Homo sapiens, UniProt P08069); construct: purchased Millipore; assay: Enzyme assay (c), IGFR kinase, Caliper LabChip; format: biochemical; conditions: 30 nM IGFR kinase, 6 uM ATP, 3 uM peptide mix; read-out: IGFR IC50
Sequence (P08069 31-1367): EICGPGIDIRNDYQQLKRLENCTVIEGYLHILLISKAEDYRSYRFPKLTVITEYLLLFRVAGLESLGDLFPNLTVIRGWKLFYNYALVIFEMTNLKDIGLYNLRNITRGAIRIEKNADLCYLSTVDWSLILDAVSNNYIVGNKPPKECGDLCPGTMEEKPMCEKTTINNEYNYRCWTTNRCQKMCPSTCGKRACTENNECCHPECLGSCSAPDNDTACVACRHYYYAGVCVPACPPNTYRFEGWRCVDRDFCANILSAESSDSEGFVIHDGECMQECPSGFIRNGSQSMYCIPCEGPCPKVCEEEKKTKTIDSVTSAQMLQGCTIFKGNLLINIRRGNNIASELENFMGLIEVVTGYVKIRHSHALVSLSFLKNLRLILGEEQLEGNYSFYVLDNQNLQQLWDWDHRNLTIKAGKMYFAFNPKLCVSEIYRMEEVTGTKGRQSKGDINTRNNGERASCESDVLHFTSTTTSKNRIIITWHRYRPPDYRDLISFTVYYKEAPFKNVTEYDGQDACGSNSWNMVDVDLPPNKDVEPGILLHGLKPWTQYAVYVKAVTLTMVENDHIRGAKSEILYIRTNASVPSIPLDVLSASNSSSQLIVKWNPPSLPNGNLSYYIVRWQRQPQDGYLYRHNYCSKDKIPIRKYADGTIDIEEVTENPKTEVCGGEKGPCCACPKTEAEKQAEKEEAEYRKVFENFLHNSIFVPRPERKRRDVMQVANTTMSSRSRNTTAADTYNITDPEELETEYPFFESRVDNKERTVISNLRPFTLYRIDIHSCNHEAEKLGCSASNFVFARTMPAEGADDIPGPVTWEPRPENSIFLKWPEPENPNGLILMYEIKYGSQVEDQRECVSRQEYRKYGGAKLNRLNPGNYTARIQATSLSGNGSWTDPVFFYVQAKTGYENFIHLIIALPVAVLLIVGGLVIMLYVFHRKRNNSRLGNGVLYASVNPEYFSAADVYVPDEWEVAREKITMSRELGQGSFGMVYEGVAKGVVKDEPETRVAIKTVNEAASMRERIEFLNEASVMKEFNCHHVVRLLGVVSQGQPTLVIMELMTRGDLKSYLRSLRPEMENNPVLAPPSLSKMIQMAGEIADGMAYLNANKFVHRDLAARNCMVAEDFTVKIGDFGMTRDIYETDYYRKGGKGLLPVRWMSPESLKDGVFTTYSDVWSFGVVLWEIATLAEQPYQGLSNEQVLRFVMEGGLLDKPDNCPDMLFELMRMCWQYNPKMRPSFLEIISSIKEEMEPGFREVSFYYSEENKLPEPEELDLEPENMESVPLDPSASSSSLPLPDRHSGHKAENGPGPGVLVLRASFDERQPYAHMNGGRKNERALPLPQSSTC
quantity: IC50 (nM)

| molecule | targetOrSystem | IC50, nM |
| --- | --- | --- |
| COc1cc(N2CC3CN(C(=O)[C@@H](N)CO)CC(C2)O3)ccc1Nc1ncc(Cl)c(-c2cnc3c(F)cccn23)n1 [Example 210] | IGFR kinase (Homo sapiens, UniProt P08069) | 36 |
| COc1cc(N2CCN(C(=O)N3CCNCC3)CC2)ccc1Nc1ncc(Cl)c(-c2cnc3ccccn23)n1 [Example 47.3] | IGFR kinase (Homo sapiens, UniProt P08069) | 6 |
| COc1cc(N2CCNCC2)ccc1Nc1ncc(F)c(-c2cnn3ccccc23)n1 [Example 171] | IGFR kinase (Homo sapiens, UniProt P08069) | 17 |
| COc1cc(N2CCNCC2)ccc1Nc1ncc(OC)c(-c2cnc3ccccn23)n1 [Example 93] | IGFR kinase (Homo sapiens, UniProt P08069) | 27 |
| COc1cc(OC2CN(C(=O)[C@@H](C)OC)C2)ccc1Nc1ncc(Cl)c(-c2cnc3ccccn23)n1 [Example 27.4] | IGFR kinase (Homo sapiens, UniProt P08069) | 24 |

1 = COc1cc(C2CCCCN2C(C)=O)ccc1Nc1ncc(Cl)c(-c2cnc3ccccn23)n1 (stereo not shown) [Example 3.25]
2 = COc1cc(N2CCN(C(=O)[C@@H](N)C(C)C)CC2)ccc1Nc1ncc(Cl)c(-c2cnc3ccccn23)n1 [Example 24.6]
3 = COc1cc(C2CCN(C(=O)CO)CC2)ccc1Nc1ncc(C#N)c(-c2cnn3ccccc23)n1 [Example 240]
Parameters: sort_field (IC50), sort_dir (desc). Please express your ranking as an ordered list of the labels. 1, 2, 3
(1: 10 nM, 2: 6 nM, 3: 3 nM)

###

target: IGFR kinase (Homo sapiens, UniProt P08069); construct: purchased Millipore; test: Enzyme assay (c), IGFR kinase, Caliper LabChip; type: biochemical; settings: 30 nM IGFR kinase, 6 uM ATP, 3 uM peptide mix; read-out: IGFR IC50
pIC50: −log10 of the molar value.
quantity: pIC50

Use these answered entries as a reference point.
| compound | value |
| --- | --- |
| COc1cc(N2CCN(C(C)(C)CO)CC2)ccc1Nc1ncc(Cl)c(-c2cnn3ccccc23)n1 [Example 230] | 8.30 |
| COc1ccc(N2CC[C@H](N(C)C)C2)cc1Nc1ncc(Cl)c(-c2cnc3ccccn23)n1 [Example 3.17] | 6.90 |

a = CNCC(=O)N1CCN(c2ccc(Nc3ncc(Cl)c(-c4cnn5ccccc45)n3)c(OC)c2)CC1 [Example 133]
b = COc1cc(N2CCCOCC2)ccc1Nc1ncc(Cl)c(-c2cnc3ccccn23)n1 [Example 3.48]
c = COc1cc(N2CCN(C)CC2)ccc1Nc1ncc(Br)c(-c2cnc3ccccn23)n1 [Example 121]
Sort low-to-high on pIC50, please. Please express your ranking as an ordered list of the labels. b, c, a

###

Molecular target: IGFR kinase (Homo sapiens, UniProt P08069)
Construct: purchased Millipore
Experiment: Enzyme assay (c), IGFR kinase, Caliper LabChip
Assay type: biochemical
Settings: 30 nM IGFR kinase, 6 uM ATP, 3 uM peptide mix; read-out: IGFR IC50
Method: For Echo dosing the solvent was 100% DMSO. A master plate was prepared with 40 ul of 10 mM stock solution of the test compound in DMSO in quadrant 1 of a Labcyte 384 well plate. A 1 in 100 dilution was made from quadrant 1 into quadrant 2 by removing 0.4 ul and adding it to 39.6 ul of DMSO. […] Integration of the substrate and product peaks was carried out using Caliper LabChip software and IC50 curves were calculated using Origin™ software.
quantity: IC50 (nM)

Use these answered entries as a reference point.
| smilesNotation | IC50 [nM] |
| --- | --- |
| COc1cc(OCC(=O)N(C)C)ccc1Nc1ncc(Cl)c(-c2cnc3c(F)cccn23)n1 | 10 |
| COc1cc(N2CC[C@@H](O)C2)ccc1Nc1ncc(F)c(-c2cnc3ccccn23)n1 | 34 |

A = COc1cc(N2CC3CN(C(=O)CN)CC(C2)O3)ccc1Nc1ncc(Cl)c(-c2cnc3c(F)cccn23)n1
B = COc1cc(CNCCO)ccc1Nc1ncc(Cl)c(-c2cnc3ccccn23)n1
Of A and B , which shows the smaller IC50 value? Provide the label of your selected option as the answer. B
(B: 19 nM, A: 30 nM)

###

Target: IGFR kinase (Homo sapiens)
Construct: purchased Millipore
Test: Enzyme assay (c), IGFR kinase, Caliper LabChip
Type: biochemical
Conditions: 30 nM IGFR kinase, 6 uM ATP, 3 uM peptide mix; read-out: IGFR IC50
Description: For Echo dosing the solvent was 100% DMSO. A master plate was prepared with 40 ul of 10 mM stock solution of the test compound in DMSO in quadrant 1 of a Labcyte 384 well plate. A 1 in 100 dilution was made from quadrant 1 into quadrant 2 by removing 0.4 ul and adding it to 39.6 ul of DMSO. […] Integration of the substrate and product peaks was carried out using Caliper LabChip software and IC50 curves were calculated using Origin™ software.
pIC50: −log10 of the molar value.
quantity: pIC50

Use these answered entries as a reference point.
| compound | pIC50 |
| --- | --- |
| COc1cc(N2CC3CN(CCO)CC(C2)O3)ccc1Nc1ncc(F)c(-c2cnn3ccccc23)n1 | 7.85 |
| COc1cc(CN[C@@H](C)CO)ccc1Nc1ncc(Cl)c(-c2cnc3ccccn23)n1 | 7.64 |

a = COc1cc(N2CC[C@@H](NC(C)=O)C2)ccc1Nc1ncc(Cl)c(-c2cnc3ccccn23)n1
b = COc1cc(N2CCN(C(=O)C3CCCN3)CC2)ccc1Nc1ncc(Cl)c(-c2cnc3ccccn23)n1 (centres unmarked)
c = COc1cc(N2CCN(CCO)CC2)ccc1Nc1ncc(F)c(-c2cnc3c(F)cccn23)n1
Parameters: sort_field (pIC50), sort_dir (desc). Please express your ranking as an ordered list of the labels. b, a, c
(b: 8.30, a: 7.74, c: 7.48)

###

target: IGFR kinase (Homo sapiens, UniProt P08069); construct: purchased Millipore; assay: Enzyme assay (c), IGFR kinase, Caliper LabChip; assay type: biochemical; settings: 30 nM IGFR kinase, 6 uM ATP, 3 uM peptide mix; read-out: IGFR IC50
quantity: IC50 (nM)

Use these answered entries as a reference point.
| smilesNotation | targetOrSystem | IC50 (nM) |
| --- | --- | --- |
| COc1cc(C(=O)N(C)CCO)ccc1Nc1ncc(Cl)c(-c2cnc3ccccn23)n1 | IGFR kinase (Homo sapiens, UniProt P08069) | 57 |
| COc1cc(CN2CCN(CCO)CC2)ccc1Nc1ncc(Cl)c(-c2cnc3ccccn23)n1 | IGFR kinase (Homo sapiens, UniProt P08069) | 20 |
| COc1cc(OC2CN(C(=O)N(C)C)C2)ccc1Nc1ncc(Cl)c(-c2cnc3ccccn23)n1 | IGFR kinase (Homo sapiens, UniProt P08069) | 32 |

I = COc1cc(N2CCC(O)CC2)ccc1Nc1ncc(F)c(-c2cnc3ccccn23)n1
II = COc1cc2c(cc1Nc1ncc(F)c(-c3cnn4ccccc34)n1)N(C(=O)CN(C)C)CC2
Select the item with the higher value of IC50 from the options I and II listed. Provide the label of your selected option as the answer. I
(I: 49 nM, II: 22 nM)

P = CNCC(=O)N1CCN(c2ccc(OC)c(Nc3ncc(Cl)c(-c4cnc5ccccn45)n3)c2)CC1
Q = COc1ccc(N2CCNCC2)cc1Nc1ncc(F)c(-c2cnc3ccccn23)n1
Of P and Q , which shows the smaller IC50 value? Provide the label of your selected option as the answer. P

a = COc1cc(N2CCN(C[C@H](C)O)CC2)ccc1Nc1ncc(Cl)c(-c2cnc3ccccn23)n1
b = COc1ccc(N2CCC(OC)CC2)cc1Nc1ncc(F)c(-c2cnc3ccccn23)n1
Select the item with the higher value of IC50 from the options a and b listed. Provide the label of your selected option as the answer. b
(b: 184 nM, a: 8 nM)
